B1: GAGE1 (parent)
chain: RPRRYVQPPEMIGPMRPEQFSDEV

Variants of: B1
Method: protein stability index of a GFP-peptide fusion (GPS, HEK-293T) (PSI 1-6); higher = more stable;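 also: lentivirally expressed fusions sorted by FACS into six bins by GFP to DsRed ratio, PSI derived from sequencing read proportions per bin multiplied by bin number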
Condition Set: c terminus: a fixed tail appended
Lab note: compare protein stability index against 4. Equal or greater, write Condition met. Smaller, write Condition not met.

Previously resolved entries follow.
P17A
Condition not met
S21G
Condition met
P8D
Condition met
I12H
Condition met
E10G
Condition met

Challenge: protein stability index >= 4 for M15T ?
Response given: Condition met

Challenge: protein stability index >= 4 for R16W ?
Response given: Condition not met

Challenge: protein stability index >= 4 for M11L ?
Response given: Condition not met

Challenge: protein stability index >= 4 for V6D ?
Response given: Condition met
